Origin of the recorded values: ChEMBL document CHEMBL4689842

# System: HEK-293T
# MEASUREMENT NOTES: Multiplex assay against HEK293T
# Format: toxicity, cell-based
# CONDITION: human, 24 h, 1 µM, compound concentration 1 uM, replicate 1
READOUT KIND: Population Membrane Permeable-Phenotype (%)
Response body: numeric value in %, unit text excluded.

Request the reported Population Membrane Permeable-Phenotype (%) associated with Nc1nc2c(c(N3CCNCC3)n1)CCC1=C2[C@@H]2CCCC[C@@H]2O1 1

And the next one, CNC(=O)c1cc(Oc2ccc(NC(=O)Nc3cc(C(C)(C)C)nn3-c3ccc4ncccc4c3)c(F)c2)ccn1 ? 23

And the next one, CC(C)Oc1ccc(C(=O)N[C@H](CNC(=O)CN(C)C)Cc2ccc(-c3cn4cccc([C@H](C)O)c4n3)cc2)cc1Cl [GSK-923295A] ? 6

And the next one, CCOc1cc2ncc(C#N)c(Nc3ccc(OCc4cccc(F)c4)c(Cl)c3)c2cc1NC(=O)/C=C/CN(C)C ? 7

###

# Test system: U2OS
# MEASUREMENT NOTES: Multiplex assay against U2OS
# Type: toxicity, cell-based
# CONDITION: human, 24 h, 10 µM, compound concentration 10 uM, replicate 1
READOUT KIND: Population Mitotic Cells (%)
Response body: numeric value in %, unit text excluded.

Request the reported Population Mitotic Cells (%) associated with CCOc1cc2ncc(C#N)c(Nc3ccc(OCc4cccc(F)c4)c(Cl)c3)c2cc1NC(=O)/C=C/CN(C)C 15

And the next one, Cc1cn(-c2cc(NC(=O)c3ccc4c(c3)CN(c3cncnc3)C[C@@H]4C)cc(C(F)(F)F)c2)cn1 ? 57

And the next one, CCOc1cc(N2CCC(O)CC2)ccc1Nc1ncc2c(n1)N(C1CCCC1)CCC(=O)N2C ? 55

And the next one, COc1ccc(NS(=O)(=O)c2sc3ccc(Cl)cc3c2C)cc1N1CCNCC1.Cl ? 38

And the next one, CC(C)(C)c1cnc(CSc2cnc(NC(=O)C3CCNCC3)s2)o1 ? 35

And the next one, Cc1cc2c(cc1N1C(=O)c3cccc4c(CCCO)ccc(c34)C1=O)n(C)c(=O)n2C ? 40

And the next one, Cc1nc(Cc2cccc(C(F)(F)F)c2)sc1-c1ccc(C(N)=O)nc1 [TP-024n] ? 57

And the next one, Nc1ccc(C(=O)Nc2cccc(-c3nc(N4CCOCC4)c4oc5ncccc5c4n3)c2)cn1 ? 19

And the next one, CC(=O)c1cc(-c2cc(C(=O)NC3CC3)ccc2C)c2ncccn12 ? 75

And the next one, O=C(O)c1ccc2cc(-c3ccc(O)c(C45CC6CC(CC(C6)C4)C5)c3)ccc2c1 ? 35

And the next one, CCC(=O)O[C@]1(C(=O)SCF)[C@H](C)C[C@H]2[C@@H]3C[C@H](F)C4=CC(=O)C=C[C@]4(C)[C@@]3(F)[C@@H](O)C[C@@]21C [FLUTICASONE PROPIONATE] ? 46

And the next one, CC(C)N1CCC(C)(C)c2cc(C#Cc3ccc(C(=O)O)cc3)ccc21 ? 30

And the next one, Cl.Cl.NC1(c2ccc(-c3nc4ccn5c(=O)[nH]nc5c4cc3-c3ccccc3)cc2)CCC1 ? 64

And the next one, CNC(=O)c1cc(Oc2ccc(NC(=O)Nc3cc(C(C)(C)C)nn3-c3ccc4ncccc4c3)c(F)c2)ccn1 ? 24

And the next one, Cl.Cl.Nc1ncnc2c1c(-c1cccc(OCc3ccccc3)c1)cn2[C@H]1C[C@@H](CN2CCC2)C1 ? 9

And the next one, c1ccc2oc(-c3csc(C4CCN(Cc5nc6ncccc6[nH]5)CC4)n3)cc2c1 ? 54
